// data source = PubChem BioAssay (EPA / NIEHS)

read-out: Intercellular Adhesion Molecule 1 (ICAM1), ICAM1 (gene 3383); assay: BSK_3C_ICAM1: BioMAP Diversity Plus: 3C Assay for Intercellular Adhesion Molecule 1 (ICAM1) Biomarker Activity (AID 2283003); settings: primary human endothelial cells (HUVEC); actives raise or lower the signal
The source made the active and inactive calls. Rule for the calls: active = hit-call score of the fitted dose curve at least 0.9, where 1 is the maximum; inactive = score below 0.9.
Labels: active, inactive

1) Cc1ccc(C)c(C)c1 | inactive
2) NS(=O)(=O)c1cc2c(cc1Cl)NCNS2(=O)=O | inactive
3) Cc1oc(-c2ccccc2)nc1CCOc1cccc2c1ccn2CCC(=O)O | inactive
4) Cc1cccc(C)c1O | inactive
5) CCCCCCC(=O)OCC | inactive
6) NC(=O)Cn1c(=O)cc(CCN2CCN(c3nccc4sccc34)CC2)c2ccc(F)cc21 | inactive
7) CN1CCCC1=O | inactive
8) COc1cc(-c2nc(NC(=O)c3cc4cc(C)cc(C)c4n3CC(=O)O)sc2CCC2CCCCC2)c(OC)cc1Cl | active
9) Cc1cc(NC(=O)C(=O)O)cc(C)c1Oc1ccc(O)c2c1CCC2 | inactive
10) Nc1ccc(S(=O)(=O)c2ccc(N)cc2)cc1 | inactive
11) COc1ccc(S(=O)(=O)N2C(=O)[C@@](c3ccccc3OC)(N3C[C@H](O)C[C@H]3C(=O)N(C)C)c3cc(Cl)ccc32)c(OC)c1 | inactive
12) c1cc(-c2ccncc2)ccn1 | inactive
13) Cc1nc(-c2ccc3c(c2)CCN(CCC2CCC(NC(=O)/C=C/c4ccc(F)cc4)CC2)CC3)no1 (stereo not given) | inactive
14) O=c1[nH]cc(F)c(=O)[nH]1 | inactive
15) CCCCN(CCCC)CCCC | inactive
16) Cc1c(C(=O)O)c(O)cc2c1C(=O)c1c(O)c([C@@H]3O[C@H](CO)[C@@H](O)[C@H](O)[C@H]3O)c(O)c(O)c1C2=O | inactive
17) Cc1nc(C)nc(N2C[C@@H](C)N(c3ccnc([C@@H](C)O)n3)[C@@H](C)C2)n1 | inactive
18) CNCc1cc(F)ccc1Oc1ccc(Cl)c(Cl)c1 | inactive
19) CCCCOC(=O)CCCCCCCCC(=O)OCCCC | inactive
20) CCCCCCCCCCO | inactive
21) O=C(OCCCCCOC(=O)c1ccccc1)c1ccccc1 | inactive
22) FC(F)(F)C(F)(F)C(F)(F)C(F)(F)C(F)(F)C(F)(F)CCI | inactive
23) CC(=O)C(C)=CC1C(C)=CCCC1(C)C (stereo not given) | inactive
24) CC(CO)OC(C)CO (stereo not given) (tested in a mixture with another compound) | inactive
25) NCC1(Cc2noc(=O)[nH]2)CCCCC1 | inactive
26) C1CCC(SSC2CCCCC2)CC1 | inactive
27) Cc1cc(=O)[nH]c(=S)[nH]1 | inactive
28) Cc1ccccc1Cl | inactive
29) CC=Cc1ccc(O)c(OC)c1 | inactive
30) COc1cc(C=O)ccc1O | inactive
31) CCNc1cccc(C)c1 | inactive
32) COC(=O)c1ccc(O)cc1 | inactive
33) Cc1ccc(C)c(O)c1C | inactive
34) CC(C)(C)c1cc(O)c(C(C)(C)C)cc1O | inactive
35) CCCCCCCCCCCCCCCCCC(=O)O | inactive
36) Cc1ccc(C(C)C)c(O)c1 | inactive
37) COc1ccc(C)cc1N | inactive
38) CCCCCCCC=O | inactive
39) COCCOCCOC | inactive
40) Nc1ccc2c(c1)C(=O)c1ccccc1C2=O | inactive
